# maps each entry to its DC50
molecular target: HiBit tagged KAT6A (Homo sapiens); construct: host or cells: HeLa; test: HiBit KAT6A Degradation Assessment; type: cell-based; settings: HeLa cells with HiBit tagged KAT6A, 18 h of treatment, 9-point serial dilution
Sequence (Q92794 whole entry): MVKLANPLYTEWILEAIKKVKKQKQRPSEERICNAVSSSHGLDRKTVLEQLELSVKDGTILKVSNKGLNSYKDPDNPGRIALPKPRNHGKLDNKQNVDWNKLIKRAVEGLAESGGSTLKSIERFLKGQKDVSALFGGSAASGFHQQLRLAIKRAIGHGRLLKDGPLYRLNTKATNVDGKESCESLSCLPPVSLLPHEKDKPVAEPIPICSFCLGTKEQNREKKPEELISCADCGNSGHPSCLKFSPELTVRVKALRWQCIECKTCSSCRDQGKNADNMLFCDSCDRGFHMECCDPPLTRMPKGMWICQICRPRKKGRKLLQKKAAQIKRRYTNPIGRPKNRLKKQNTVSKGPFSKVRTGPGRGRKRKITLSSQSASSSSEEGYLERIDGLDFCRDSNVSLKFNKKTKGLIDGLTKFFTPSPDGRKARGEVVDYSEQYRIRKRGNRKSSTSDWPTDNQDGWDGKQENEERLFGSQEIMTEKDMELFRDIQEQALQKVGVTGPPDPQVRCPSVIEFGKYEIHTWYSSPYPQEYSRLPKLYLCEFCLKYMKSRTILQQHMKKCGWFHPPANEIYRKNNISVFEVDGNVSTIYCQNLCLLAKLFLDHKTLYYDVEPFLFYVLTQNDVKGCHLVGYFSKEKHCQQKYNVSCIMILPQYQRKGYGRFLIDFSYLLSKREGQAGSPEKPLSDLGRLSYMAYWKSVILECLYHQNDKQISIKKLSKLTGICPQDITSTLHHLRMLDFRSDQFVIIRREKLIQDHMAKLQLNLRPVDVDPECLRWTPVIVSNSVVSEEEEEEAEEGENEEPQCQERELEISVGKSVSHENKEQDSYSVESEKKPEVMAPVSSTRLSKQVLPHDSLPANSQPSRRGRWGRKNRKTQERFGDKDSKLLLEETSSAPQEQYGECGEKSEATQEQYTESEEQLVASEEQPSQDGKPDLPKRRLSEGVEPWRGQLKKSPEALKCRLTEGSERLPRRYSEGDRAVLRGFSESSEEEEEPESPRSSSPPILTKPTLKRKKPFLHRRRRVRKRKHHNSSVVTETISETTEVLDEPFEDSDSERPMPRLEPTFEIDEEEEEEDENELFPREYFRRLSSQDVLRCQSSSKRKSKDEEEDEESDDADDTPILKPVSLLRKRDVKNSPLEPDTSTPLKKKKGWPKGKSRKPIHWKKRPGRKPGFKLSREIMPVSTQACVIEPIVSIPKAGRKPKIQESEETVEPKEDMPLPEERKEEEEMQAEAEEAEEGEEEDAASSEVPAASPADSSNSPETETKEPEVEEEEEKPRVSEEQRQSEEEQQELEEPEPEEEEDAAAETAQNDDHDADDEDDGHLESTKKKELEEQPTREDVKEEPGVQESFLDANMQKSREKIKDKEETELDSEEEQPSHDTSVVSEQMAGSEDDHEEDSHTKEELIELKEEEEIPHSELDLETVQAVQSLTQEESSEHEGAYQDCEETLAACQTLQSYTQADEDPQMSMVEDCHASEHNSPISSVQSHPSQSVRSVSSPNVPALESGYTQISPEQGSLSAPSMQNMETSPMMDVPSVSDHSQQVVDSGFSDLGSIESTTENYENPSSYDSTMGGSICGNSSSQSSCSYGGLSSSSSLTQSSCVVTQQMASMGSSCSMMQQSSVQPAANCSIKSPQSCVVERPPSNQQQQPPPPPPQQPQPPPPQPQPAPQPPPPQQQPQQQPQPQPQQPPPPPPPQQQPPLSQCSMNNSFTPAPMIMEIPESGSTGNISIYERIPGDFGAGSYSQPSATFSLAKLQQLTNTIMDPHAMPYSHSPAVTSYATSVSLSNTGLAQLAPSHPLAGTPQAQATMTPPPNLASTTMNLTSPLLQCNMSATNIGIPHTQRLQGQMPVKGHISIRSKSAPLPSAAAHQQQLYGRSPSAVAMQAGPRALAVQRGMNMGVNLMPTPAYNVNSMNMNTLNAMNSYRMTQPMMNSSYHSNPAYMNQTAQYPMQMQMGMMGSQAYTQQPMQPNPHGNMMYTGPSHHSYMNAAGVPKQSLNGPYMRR
Measured quantity: DC50

compound="COc1cc(Cn2cccn2)cc2onc(NS(=O)(=O)c3cccc(N4CCC(CN5CCN(c6ccc7c(c6)c6cccnc6n7C6CCC(=O)NC6=O)CC5)C4)c3)c12 (centres unmarked)" measured_quantity=DC50 measured_value="10 to 100 nM"
compound="COc1ccc(N2CC3(CCN(C[C@@H]4CCN(c5ccc6c(c5)C(=O)N(C5CCC(=O)NC5=O)C6=O)C4)CC3)C2)c(OC)c1S(=O)(=O)Nc1noc2cc(Cn3cccn3)cc(OC)c12 (some centres unmarked)" measured_quantity=DC50 measured_value="< 10 nM"
compound="COc1cc(Cn2cccn2)cc2onc(NS(=O)(=O)c3cccc(N4CC5(CCN(C6CC7(CCN(c8ccc9c(c8)C(=O)N(C8CCC(=O)NC8=O)C9=O)C7)C6)CC5)C4)c3)c12 (centres unmarked)" measured_quantity=DC50 measured_value="< 10 nM"
compound="COc1cc(Cn2cccn2)cc2onc(NS(=O)(=O)c3cccc(N4CCN(C5CC6(CCN(c7ccc8c(c7)C(=O)N(C7CCC(=O)NC7=O)C8=O)CC6)C5)CC4)c3)c12 (centres unmarked)" measured_quantity=DC50 measured_value="10 to 100 nM"
compound="COc1cc(Cn2cccn2)cc2onc(NS(=O)(=O)c3cccc(N4CCN(CCC5CCN(c6ccc7c(c6)C(=O)N(C6CCC(=O)NC6=O)C7=O)C5)CC4)c3)c12 (centres unmarked)" measured_quantity=DC50 measured_value="10 to 100 nM"
compound=COc1cc(Cn2cccn2)cc2onc(NS(=O)(=O)c3cccc(N4CC5(CCN(C[C@@H]6CCN(c7ccc8c(c7)CN([C@H]7CCC(=O)NC7=O)C8=O)C6)CC5)C4)c3)c12 measured_quantity=DC50 measured_value="< 10 nM"
compound="COc1cc(Cn2cccn2)cc2onc(NS(=O)(=O)c3cccc(N4CCN(CC5CCN(c6ccc7c(c6)C(=O)N(C6CCC(=O)NC6=O)C7=O)C5)C(C)(C)C4)c3)c12 (centres unmarked)" measured_quantity=DC50 measured_value="100 to 1000 nM"
compound=COc1cc(Cn2cccn2)cc2onc(NS(=O)(=O)c3cccc(N4CCC(NC[C@@H]5CCN(c6ccc7c(c6)CN([C@H]6CCC(=O)NC6=O)C7=O)C5)CC4)c3)c12 measured_quantity=DC50 measured_value="10 to 100 nM"
compound="COc1cc(Cn2cccn2)cc2onc(NS(=O)(=O)c3cccc(N4CCN(CC5CCN(c6cccc7c6C(=O)N(C6CCC(=O)NC6=O)C7=O)CC5)CC4)c3)c12 (centres unmarked)" measured_quantity=DC50 measured_value="10 to 100 nM"
compound="COc1cc(Cn2cccn2)cc2onc(NS(=O)(=O)c3cccc(N4CCN(CCC5CCN(c6ccc7c(c6)C(=O)N(C6CCC(=O)NC6=O)C7=O)CC5)CC4)c3)c12 (centres unmarked)" measured_quantity=DC50 measured_value="10 to 100 nM"
compound="COc1cc(Cn2cccn2)cc2onc(NS(=O)(=O)c3cccc(N4CC5(CCN(CC6CCN(c7ccc8c(c7)C(=O)N(C7CCC(=O)NC7=O)C8)C6)CC5)C4)c3)c12 (centres unmarked)" measured_quantity=DC50 measured_value="< 10 nM"
compound="COc1cc(Cn2cccn2)cc2onc(NS(=O)(=O)c3cccc(N4CCN(CC5CCN(c6cccc7c6C(=O)N(C6CCC(=O)NC6=O)C7=O)C5)CC4)c3)c12 (centres unmarked)" measured_quantity=DC50 measured_value="100 to 1000 nM"
compound="COc1cc(Cn2cccn2)cc2onc(NS(=O)(=O)c3cccc(N4CC5(CCN(CC6(C)CCN(c7ccc8c(c7)C(=O)N(C7CCC(=O)NC7=O)C8=O)C6)CC5)C4)c3)c12 (centres unmarked)" measured_quantity=DC50 measured_value="< 10 nM"
compound="COc1cc(Cn2cccn2)cc2onc(NS(=O)(=O)c3cccc(N4CC5(CCN(CC6(F)CCN(c7ccc8c(c7)C(=O)N(C7CCC(=O)NC7=O)C8=O)C6)CC5)C4)c3)c12 (centres unmarked)" measured_quantity=DC50 measured_value="10 to 100 nM"
compound="COc1cc(Cn2cccn2)cc2onc(NS(=O)(=O)c3cccc(N4CCC5(CC4)CN(C[C@@H]4CCN(c6ccc7c(c6)C(=O)N(C6CCC(=O)NC6=O)C7=O)C4)C5)c3)c12 (some centres unmarked)" measured_quantity=DC50 measured_value="< 10 nM"
compound="COc1cc(Cn2cccn2)cc2onc(NS(=O)(=O)c3cccc(N4CCC5(CCN(CC6CCN(c7ccc8c(c7)C(=O)N(C7CCC(=O)NC7=O)C8=O)C6)CC5)CC4)c3)c12 (centres unmarked)" measured_quantity=DC50 measured_value="< 10 nM"
compound=COc1cc(Cn2cccn2)cc2onc(NS(=O)(=O)c3cccc(N(C)C4CCN(C[C@@H]5CCN(c6ccc7c(c6)CN([C@H]6CCC(=O)NC6=O)C7=O)C5)CC4)c3)c12 measured_quantity=DC50 measured_value="< 10 nM"

Entry source: patent US20230416240A1
